Molecular target: PI3-kinase p110-alpha/p85-alpha (Homo sapiens)
Sequence (P27986 whole entry): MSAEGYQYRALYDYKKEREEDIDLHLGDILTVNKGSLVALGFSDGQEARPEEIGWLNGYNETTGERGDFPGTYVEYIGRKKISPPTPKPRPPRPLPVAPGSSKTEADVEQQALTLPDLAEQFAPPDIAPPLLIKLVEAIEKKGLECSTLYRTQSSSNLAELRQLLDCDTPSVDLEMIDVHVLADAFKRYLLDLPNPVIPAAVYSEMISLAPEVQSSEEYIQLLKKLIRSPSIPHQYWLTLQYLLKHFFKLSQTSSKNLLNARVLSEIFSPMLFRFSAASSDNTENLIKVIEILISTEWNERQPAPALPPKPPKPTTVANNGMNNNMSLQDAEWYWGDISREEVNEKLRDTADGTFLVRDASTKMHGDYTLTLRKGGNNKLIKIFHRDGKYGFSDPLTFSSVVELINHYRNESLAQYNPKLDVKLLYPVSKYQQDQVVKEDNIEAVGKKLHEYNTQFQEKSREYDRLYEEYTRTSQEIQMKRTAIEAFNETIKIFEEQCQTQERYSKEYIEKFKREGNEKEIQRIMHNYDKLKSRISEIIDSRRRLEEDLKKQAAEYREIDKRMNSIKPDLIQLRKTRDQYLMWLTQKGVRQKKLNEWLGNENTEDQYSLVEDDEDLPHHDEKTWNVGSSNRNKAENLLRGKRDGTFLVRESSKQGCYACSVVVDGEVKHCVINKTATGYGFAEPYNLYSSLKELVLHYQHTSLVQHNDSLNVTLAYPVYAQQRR
Sequence (P42336 whole entry): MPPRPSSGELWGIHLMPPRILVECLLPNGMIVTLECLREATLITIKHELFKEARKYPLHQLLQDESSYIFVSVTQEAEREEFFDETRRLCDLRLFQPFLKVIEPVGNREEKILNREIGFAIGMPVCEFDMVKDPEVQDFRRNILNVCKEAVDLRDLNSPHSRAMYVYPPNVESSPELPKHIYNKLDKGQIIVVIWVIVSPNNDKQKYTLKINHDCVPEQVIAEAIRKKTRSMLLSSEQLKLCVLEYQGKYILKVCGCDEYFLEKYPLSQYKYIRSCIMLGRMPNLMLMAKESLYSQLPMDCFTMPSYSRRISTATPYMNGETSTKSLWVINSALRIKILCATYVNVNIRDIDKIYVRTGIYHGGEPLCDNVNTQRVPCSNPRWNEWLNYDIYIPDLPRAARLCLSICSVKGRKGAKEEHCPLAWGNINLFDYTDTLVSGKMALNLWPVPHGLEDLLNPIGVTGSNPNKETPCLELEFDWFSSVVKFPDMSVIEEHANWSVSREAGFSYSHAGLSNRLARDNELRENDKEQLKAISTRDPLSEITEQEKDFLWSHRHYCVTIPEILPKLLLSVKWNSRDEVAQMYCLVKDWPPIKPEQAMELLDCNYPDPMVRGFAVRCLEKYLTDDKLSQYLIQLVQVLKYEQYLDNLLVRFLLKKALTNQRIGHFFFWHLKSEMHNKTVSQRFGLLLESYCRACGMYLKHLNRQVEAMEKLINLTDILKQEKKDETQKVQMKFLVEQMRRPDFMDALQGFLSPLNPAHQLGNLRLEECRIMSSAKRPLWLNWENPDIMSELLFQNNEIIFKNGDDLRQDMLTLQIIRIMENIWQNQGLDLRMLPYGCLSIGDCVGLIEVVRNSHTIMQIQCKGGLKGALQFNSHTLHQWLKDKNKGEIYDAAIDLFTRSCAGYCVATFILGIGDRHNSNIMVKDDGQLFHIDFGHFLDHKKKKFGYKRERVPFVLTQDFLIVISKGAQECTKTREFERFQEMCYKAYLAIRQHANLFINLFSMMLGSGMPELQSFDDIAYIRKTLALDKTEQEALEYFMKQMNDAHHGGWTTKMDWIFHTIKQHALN
Experiment: Inhibition of N-terminal His6-tagged recombinant full-length human p110alpha/untagged recombinant full length human p85alpha expressed in baculovirus infected Sf21 cells using phosphatidylinositol as substrate in presence of gamma-32P-ATP after 5 mins by thin layer chromatographic method
pIC50: −log10 of the molar value.
OBSERVATION TYPE: pIC50

A selection of reference data follows.
Cc1ccccc1-n1c(Cn2nc(C#CC3CC3)c3c(N)ncnc32)cc2cccc(C)c2c1=O
< 5.00
CCc1ccccc1-n1c(Cn2nc(C#C[C@@H](C)O)c3c(N)ncnc32)cc2cccc(C)c2c1=O
< 5.00
COc1ccc(-c2nn(Cc3cc4cccc(C)c4c(=O)n3-c3ccccc3C)c3ncnc(N)c23)cc1OC
< 5.00

Looking up Cc1cccc2cc(Cn3nc(-c4cccc(O)c4)c4c(N)ncnc43)n(C3CCCC3)c(=O)c12 , I found its pIC50 recorded as < 5.00

Looking up Cc1ccccc1-n1c(Cn2nc(C#C[C@@H](C)O)c3c(N)ncnc32)cc2cccc(F)c2c1=O , I found its pIC50 recorded as < 5.00

Looking up C=Cc1nn(Cc2cc3cccc(C)c3c(=O)n2-c2ccccc2C)c2ncnc(N)c12 , I found its pIC50 recorded as < 5.00

Looking up Cc1ccccc1-n1c(Cn2nc(-c3cccc(Cl)c3)c3c(N)ncnc32)cc2cccc(C)c2c1=O , I found its pIC50 recorded as < 5.00

Looking up CC(=O)Nc1nc2ccc(-c3nn(Cc4cc5cccc(C)c5c(=O)n4C)c4ncnc(N)c34)cc2s1 , I found its pIC50 recorded as > 4.00

Looking up Cc1ccccc1-n1c(Cn2nc(-c3cccc(O)c3)c3c(N)ncnc32)cc2ccccc2c1=O , I found its pIC50 recorded as < 5.00
